Tested on: MLO-Y4 osteocytes
experiment-notes: High-throughput drug screening of primary cilia length and incidence
Assay type: cell-based
assay-conditions: 10 μM, 16 hours, triplicate; normalized to vehicle control; standard deviation away from the population average
Where a name gives a salt, the structure may show the parent alone.
Listing of entries alongside the reported Average Incidence SD Away.
Give just the number in SD; leave the unit off.

Illustrative cases are given below, each with its answer.
{"molecule": "CCc1c2c(nc3ccc(OC(=O)N4CCC(N5CCCCC5)CC4)cc13)-c1cc3c(c(=O)n1C2)COC(=O)[C@]3(O)CC", "value-measured": 1.681}
{"molecule": "Cc1cccc([C@H](C)c2cnc[nH]2)c1C [Dexmedetomidine HCl (Precedex), Dexmedetomidine HCl]", "value-measured": 2.924}
{"molecule": "COC(=O)C1=C(C)NC(C)=C(C(=O)OC2CCCN(Cc3ccccc3)C2)C1c1cccc([N+](=O)[O-])c1 (stereo not drawn) [Benidipine hydrochloride]", "value-measured": 1.811}
{"molecule": "CCc1c2c(nc3ccc(OC(=O)N4CCC(N5CCCCC5)CC4)cc13)-c1cc3c(c(=O)n1C2)COC(=O)[C@]3(O)CC.Cl", "value-measured": 1.633}
{"molecule": "CC1=NN(c2ccccc2)C(=O)C1", "value-measured": 1.537}

Notebook: pull reported Average Incidence SD Away for MLO-Y4 osteocytes, entry Cn1c(=O)c2[nH]cnc2n(C)c1=O.Cn1c(=O)c2[nH]cnc2n(C)c1=O.NCCN
2.59

Notebook: pull reported Average Incidence SD Away for MLO-Y4 osteocytes, entry CC[C@]1(O)C[C@@H]2CN(CCc3c([nH]c4ccccc34)[C@@](C(=O)OC)(c3cc4c(cc3OC)N(C)[C@H]3[C@@](O)(C(=O)OC)[C@H](OC(C)=O)[C@]5(CC)C=CCN6CC[C@]43[C@@H]65)C2)C1
3.124

Notebook: pull reported Average Incidence SD Away for MLO-Y4 osteocytes, entry CN(Cc1cnc2nc(N)nc(N)c2n1)c1ccc(C(=O)N[C@@H](CCC(=O)O)C(=O)O)cc1 [Methotrexate]
2.424

Notebook: pull reported Average Incidence SD Away for MLO-Y4 osteocytes, entry O=C1c2ccccc2C(=O)C1c1ccccc1 [Phenindione (Rectadione), Phenindione]
1.688

Notebook: pull reported Average Incidence SD Away for MLO-Y4 osteocytes, entry CC(=O)Nc1ccccc1 [Acetanilide (Antifebrin), Acetanilide]
1.696

Notebook: pull reported Average Incidence SD Away for MLO-Y4 osteocytes, entry CN(C)CCOC(c1ccccc1)c1ccccc1 [Diphenhydramine HCl (Benadryl), Diphenhydramine HCl]
1.928
